Molecular target: Glucose-dependent insulinotropic receptor (Rattus norvegicus, UniProt Q7TQN8)
Sequence (Q7TQN8 whole entry): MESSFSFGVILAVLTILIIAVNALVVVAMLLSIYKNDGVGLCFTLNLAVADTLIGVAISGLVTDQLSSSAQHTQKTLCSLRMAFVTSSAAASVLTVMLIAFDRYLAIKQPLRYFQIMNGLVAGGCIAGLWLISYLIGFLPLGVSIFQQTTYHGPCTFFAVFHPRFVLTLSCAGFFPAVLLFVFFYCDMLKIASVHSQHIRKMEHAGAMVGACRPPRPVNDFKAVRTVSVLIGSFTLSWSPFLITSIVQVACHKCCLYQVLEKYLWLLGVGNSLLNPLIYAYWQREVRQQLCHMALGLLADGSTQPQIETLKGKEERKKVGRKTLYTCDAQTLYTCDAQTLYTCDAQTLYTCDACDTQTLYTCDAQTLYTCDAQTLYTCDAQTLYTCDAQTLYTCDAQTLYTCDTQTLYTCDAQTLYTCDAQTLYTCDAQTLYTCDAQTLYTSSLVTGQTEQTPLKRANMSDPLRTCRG
Experiment: Agonist activity at rat GPR119 by melanophore assay
Type: functional
pEC50: −log10 of the molar value.
As shown below, each of these molecules has a reported pEC50 value.
outcome measure: pEC50

>>> df
                                        smi  value_modifier  test_result
0  Cc1nn(-c2ccc(S(C)(=O)=O)cc2)c2ncnc(OC3CCN(C(=O)OC(C)(C)C)CC3)c12               =         7.38
1  CC(C)(C)OC(=O)N1CCC(Nc2ncnc3c2cnn3-c2ccc(S(C)(=O)=O)cc2)CC1               <         5.00
2  CC(C)(C)OC(=O)N1CCC(Oc2ncnc3c2cnn3-c2ccc(S(C)(=O)=O)cc2F)CC1               =         7.71
3  CC(C)(C)OC(=O)N1CCC(S(=O)(=O)c2ncnc3c2cnn3-c2ccc(S(C)(=O)=O)cc2)CC1               <         5.00
4  CCOC(=O)N1CCC(Oc2ncnc3c2cnn3-c2ccc(S(C)(=O)=O)cc2)CC1               =         7.28

----------
Molecular target: Glucose-dependent insulinotropic receptor (Homo sapiens)
Sequence (whole entry): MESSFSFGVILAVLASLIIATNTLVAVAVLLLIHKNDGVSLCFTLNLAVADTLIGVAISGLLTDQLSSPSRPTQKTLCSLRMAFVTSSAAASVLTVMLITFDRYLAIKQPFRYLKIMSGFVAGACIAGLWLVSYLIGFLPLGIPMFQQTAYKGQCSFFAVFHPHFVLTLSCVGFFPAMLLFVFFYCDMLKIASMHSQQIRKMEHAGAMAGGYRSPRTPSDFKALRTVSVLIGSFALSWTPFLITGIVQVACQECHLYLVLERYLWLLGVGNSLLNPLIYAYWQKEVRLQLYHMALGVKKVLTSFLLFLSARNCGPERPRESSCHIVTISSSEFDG
Assay: Agonist activity at human GPR119 by melanophore assay relative to AR231453
Assay type: functional
outcome measure: Emax (%)

>>> df
                                   molecule  test_result
0  Cc1nn(-c2ccc(S(C)(=O)=O)cc2)c2ncnc(OC3CCN(C(=O)OC(C)(C)C)CC3)c12          103
1  CC(C)(C)OC(=O)N1CCC(Oc2ncnc3c2nnn3-c2ccc(S(C)(=O)=O)cc2)CC1          103
2  CC(C)OC(=O)N1CCC(Oc2ncnc3c2cnn3-c2ccc(S(C)(=O)=O)cc2)CC1           83
3  CS(=O)(=O)c1ccc(-n2ncc3c(OC4CCN(C(=O)OC5CCOC5)CC4)ncnc32)cc1 (configuration not stated)           71
4  CC(C)OC(=O)N1CCC(Oc2ncnc3c(-c4ccc(S(C)(=O)=O)cc4)noc23)CC1           65
5  CCN(CC1CCN(C(=O)OC(C)C)CC1)c1ncnc2c1cnn2-c1ccc(S(C)(=O)=O)cc1F           82
6  CCCCOC(=O)N1CCC(Oc2ncnc3c2cnn3-c2ccc(S(C)(=O)=O)cc2)CC1           79

----------
experiment: Tmax in po dosed mouse; format: ADME, organism-based; settings: in vivo
outcome measure: Tmax

                                        smi  test_result
0  CC(C)OC(=O)N1CCC(Oc2ncnc3c2cnn3-c2ccc(S(C)(=O)=O)cc2F)CC1        ≤ 2 h

----------
assay: Elimination half life in iv dosed cynomolgus monkey; format: ADME, organism-based, Macaca fascicularis; settings: in vivo, read-out: beta t1/2 (converted)
outcome measure: half-life (min)

In [3]: df
Out[3]:
                                        smi  test_result
0  CC(C)OC(=O)N1CCC(Oc2ncnc3c2cnn3-c2ccc(S(C)(=O)=O)cc2F)CC1           48

----------
test: Tmax in po dosed dog; type: ADME, organism-based, Canis lupus familiaris; conditions: in vivo
outcome measure: Tmax (h)

>>> print(df.to_string())
                                        smi  test_result
0  CC(C)OC(=O)N1CCC(Oc2ncnc3c2cnn3-c2ccc(S(C)(=O)=O)cc2F)CC1            6

----------
Target: Glucose-dependent insulinotropic receptor (Rattus norvegicus) (UniProt Q7TQN8)
Sequence (whole entry): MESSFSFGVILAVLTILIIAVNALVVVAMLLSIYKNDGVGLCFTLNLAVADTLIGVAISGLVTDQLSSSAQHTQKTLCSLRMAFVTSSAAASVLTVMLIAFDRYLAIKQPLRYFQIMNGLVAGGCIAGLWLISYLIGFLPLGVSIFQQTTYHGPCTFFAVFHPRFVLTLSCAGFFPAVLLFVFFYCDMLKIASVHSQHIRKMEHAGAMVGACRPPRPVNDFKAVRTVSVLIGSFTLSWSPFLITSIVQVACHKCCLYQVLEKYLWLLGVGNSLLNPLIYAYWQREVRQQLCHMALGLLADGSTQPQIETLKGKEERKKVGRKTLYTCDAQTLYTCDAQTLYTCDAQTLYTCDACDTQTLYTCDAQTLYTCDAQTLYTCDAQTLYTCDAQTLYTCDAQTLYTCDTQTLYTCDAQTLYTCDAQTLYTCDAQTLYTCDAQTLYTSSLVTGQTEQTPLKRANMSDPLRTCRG
Test: Selectivity ratio of EC50 for rat GPR119 to EC50 for human GPR119
As shown below, each of these compounds has a reported Ratio EC50 value.
outcome measure: Ratio EC50

                                        smi  outcome_measure  test_result
0  CC(C)(C)OC(=O)N1CCC(Cc2ncnc3c2cnn3-c2ccc(S(C)(=O)=O)cc2)CC1       Ratio EC50         16.4
1  CS(=O)(=O)c1ccc(-n2ncc3c(OC4CCN(C(=O)OC5CCCC5)CC4)ncnc32)cc1       Ratio EC50          1.4
2  Cc1nn(-c2ccc(S(C)(=O)=O)cc2)c2ncnc(OC3CCN(C(=O)OC(C)(C)C)CC3)c12       Ratio EC50            3
3  CC(C)(C)OC(=O)N1CCC(Oc2ncnc3c2nnn3-c2ccc(S(C)(=O)=O)cc2)CC1       Ratio EC50          5.7
4  CC(C)(C)COC(=O)N1CCC(Oc2ncnc3c2cnn3-c2ccc(S(C)(=O)=O)cc2)CC1       Ratio EC50            8
5  CC(C)(C)OC(=O)N1CCC(Sc2ncnc3c2cnn3-c2ccc(S(C)(=O)=O)cc2)CC1       Ratio EC50            3

----------
assay: Oral bioavailability in Sprague-Dawley rat; format: ADME, organism-based; details: in vivo
outcome measure: bioavailability (%)

                                        smi  outcome_measure  units_symbol  test_result
0  CC(C)OC(=O)N1CCC(Oc2ncnc3c2cnn3-c2ccc(S(C)(=O)=O)cc2F)CC1  bioavailability             %           44

----------
test: Plasma protein binding in male cynomolgus monkey; assay type: ADME, cell-free, Macaca fascicularis; details: read-out: PPB
outcome measure: fraction unbound

>>> df
                                        smi   outcome_measure  test_result
0  CC(C)OC(=O)N1CCC(Oc2ncnc3c2cnn3-c2ccc(S(C)(=O)=O)cc2F)CC1  fraction unbound       ≤ 0.01

----------
assay: Oral bioavailability in dog; type: ADME, organism-based, Canis lupus familiaris; conditions: in vivo
outcome measure: bioavailability (%)

                                        smi  test_result
0  CC(C)OC(=O)N1CCC(Oc2ncnc3c2cnn3-c2ccc(S(C)(=O)=O)cc2F)CC1           22
